System: horse erythrocytes
Cond: TRIS buffer pH 7.2, 1 h, 37°C, absorbance 540 nm, relative to melittin 100 μM, ± confidence interval (α = 0.05)
No end group written: not given here.
Class membership depends on Percent hemolysis at 150 μM alone; the intervals are Low: < 5%; Mid: ≥ 5% and < 90%; High: ≥ 90%

substance="RINSAKDDAAGLQIA-OH [flg15]" label=Low
substance="VWNQPVRGFKVYEKKLFKKILKKL-NH2 [Pep13-BP16]" label=Low
substance="H-KKVVFWVKFKYGIHTH-NH2 [KSLW-PIP1]" label=Low
substance="VWNQPVRGFKVYEKKLFKKILKYL-NH2 [Pep13-BP100]" label=Mid
substance="KKLFKKILKYL-FKLFKKILKVL-NH2 [BP100-BP13]" label=High
substance="KKLFKKILKKL-FKLFKKILKVL-NH2 [BP16-BP13]" label=High
substance="KKLFKKILKYLVWNQPVRGFKVYE [BP100-Pep13]" label=Mid
substance="KKVVFWVKFK-RINSAKDDAAGLQIA-OH [KSLW-flg15]" label=Mid
substance="FKLFKKILKVL-KKLFKKILKKL-NH2 [BP13-BP16]" label=Mid

----------
System: horse erythrocytes
Cond: TRIS buffer pH 7.2, 1 h, 37°C, absorbance 540 nm, relative to melittin 100 μM, ± confidence interval (α = 0.05)
No end group written: not given here.
Property Name: Percent hemolysis at 250 μM

substance="H-RINSAKDDAAGLQIAKKLFKKILKKL-NH2 [flg15-BP16]" property_name="Percent hemolysis at 250 μM" reading="4 ± 0.9%"
substance="FKLFKKILKVL-KKLFKKILKYL-NH2 [BP13-BP100]" property_name="Percent hemolysis at 250 μM" reading="99 ± 7.1%"
substance="YGIHTH-NH2 [PIP1]" property_name="Percent hemolysis at 250 μM" reading="0 ± 2%"
substance="KKLFKKILKKL-RINSAKDDAAGLQIA-OH [BP16-flg15]" property_name="Percent hemolysis at 250 μM" reading="0 ± 0.6%"
substance="RINSAKDDAAGLQIA-OH [flg15]" property_name="Percent hemolysis at 250 μM" reading="0 ± 0%"
substance="KKLfKKILKYL-FKLFKKILKVL-NH2 [BP143-BP13]" property_name="Percent hemolysis at 250 μM" reading="100 ± 7.1%"
substance="VWNQPVRGFKVYEKKLFKKILKYL-NH2 [Pep13-BP100]" property_name="Percent hemolysis at 250 μM" reading="45 ± 9.0%"
substance="KKLFKKILKYL-RINSAKDDAAGLQIA-OH [BP100-flg15]" property_name="Percent hemolysis at 250 μM" reading="3 ± 0.0%"
substance="KKLFKKILKKL-FKLFKKILKVL-NH2 [BP16-BP13]" property_name="Percent hemolysis at 250 μM" reading="100 ± 8.5%"

----------
Tested on: horse erythrocytes
Cond: TRIS buffer pH 7.2, 1 h, 37°C, absorbance 540 nm, relative to melittin 100 μM, ± confidence interval (α = 0.05)
No end group written: not given here.
Threshold-based label: Percent hemolysis at 150 μM under 3% gives label 1, Percent hemolysis at 150 μM not under 3% gives label 0.

substance="FKLFKKILKVL-KKLFKKILKYL-NH2 [BP13-BP100]" label="label 0"
substance="FKLFKKILKVL-NH2 [BP13, reference compound]" label="label 0"
substance="VWNQPVRGFKVYE-OH [Pep13]" label="label 1"
substance="KKVVFWVKFK-NH2 [KSL-W, reference compound]" label="label 0"
substance="H-YGIHTHKKVVFWVKFK-NH2 [PIP1-KSLW]" label="label 0"
substance="KKLFKKILKKLVWNQPVRGFKVYE [BP16-Pep13]" label="label 1"
substance="KKLFKKILKYL-RINSAKDDAAGLQIA-OH [BP100-flg15]" label="label 1"
substance="YGIHTH-NH2 [PIP1]" label="label 1"
substance="KKLfKKILKYL-FKLFKKILKVL-NH2 [BP143-BP13]" label="label 0"
substance="H-KKVVFWVKFKFKLFKKILKVL-NH2 [KSLW-BP13]" label="label 0"
substance="Ac-KKLfKKILKK(COC3H7)L-RINSAKDDAAGLQIA-OH [BP475-flg15]" label="label 1"

----------
Tested on: horse erythrocytes
Cond: TRIS buffer pH 7.2, 1 h, 37°C, absorbance 540 nm, relative to melittin 100 μM, ± confidence interval (α = 0.05)
Non-standard residues stand in square brackets, D forms with d. Residues, ends and D or L forms follow the SMILES beside them. *: point of attachment. Butyryl = CCCC(=O)*
Quick reference: Percent hemolysis at 250 μM of the listed items.
Property Name: Percent hemolysis at 250 μM (%)

compound="CC[C@H](C)[C@H](NC(=O)[C@H](CCCCN)NC(=O)[C@H](CCCCN)NC(=O)[C@H](Cc1ccccc1)NC(=O)[C@H](CC(C)C)NC(=O)[C@H](CCCCN)NC(=O)[C@@H](N)CCCCN)C(=O)N[C@@H](CC(C)C)C(=O)N[C@@H](CCCCN)C(=O)N[C@@H](Cc1ccc(O)cc1)C(=O)N[C@@H](CC(C)C)C(N)=O [BP100, reference compound]" target_or_test_system="horse erythrocytes" reading=6
compound="CC[C@H](C)[C@H](NC(=O)[C@H](CCCCN)NC(=O)[C@H](CCCCN)NC(=O)[C@@H](Cc1ccccc1)NC(=O)[C@H](CC(C)C)NC(=O)[C@H](CCCCN)NC(=O)[C@@H](N)CCCCN)C(=O)N[C@@H](CC(C)C)C(=O)N[C@@H](CCCCN)C(=O)N[C@@H](Cc1ccc(O)cc1)C(=O)N[C@@H](CC(C)C)C(N)=O [BP143, reference compound]" target_or_test_system="horse erythrocytes" reading=6
compound="CCCC(=O)NCCCC[C@H](NC(=O)[C@H](CCCCN)NC(=O)[C@H](CC(C)C)NC(=O)[C@@H](NC(=O)[C@H](CCCCN)NC(=O)[C@H](CCCCN)NC(=O)[C@@H](Cc1ccccc1)NC(=O)[C@H](CC(C)C)NC(=O)[C@H](CCCCN)NC(=O)[C@H](CCCCN)NC(C)=O)[C@@H](C)CC)C(=O)N[C@@H](CC(C)C)C(N)=O [BP475, reference compound] (Ac-KKL[dF]KKILKK(Butyryl)L-NH2)" target_or_test_system="horse erythrocytes" reading=0

----------
Catalogue of substances with associated Size of the lesions in infiltrated tobacco leaves at 250 μM
Test system: tobacco leaves
Assay Text: Effect of peptide infiltration on tobacco leaves (phytotoxicity)
Assay type: in vivo
Cond: 100 μL infiltrated into mesophyll, lesion diameter 48 h after infiltration, at least three leaves; ± confidence interval (α = 0.05)
Property Name: Size of the lesions in infiltrated tobacco leaves at 250 μM (cm)

substance="Ac-KKLfKKILKK(COC3H7)L-RINSAKDDAAGLQIA-OH [BP475-flg15, peptide conjugate, lipopeptide BP475 at N-terminus, flg15 at C-terminus]" target_or_test_system="tobacco leaves" reading=1.23
substance="FKLFKKILKVL-KKLFKKILKKL-NH2 [BP13-BP16, peptide conjugate, BP13 at N-terminus, BP16 at C-terminus]" target_or_test_system="tobacco leaves" reading=1.40
substance="KKLFKKILKKL-RINSAKDDAAGLQIA-OH [BP16-flg15, peptide conjugate, BP16 at N-terminus, flg15 at C-terminus]" target_or_test_system="tobacco leaves" reading=0.30
substance="Ac-KKLFKKIK(COC3H7)KYL-RINSAKDDAAGLQIA-OH [BP387-flg15, peptide conjugate, lipopeptide BP387 at N-terminus, flg15 at C-terminus]" target_or_test_system="tobacco leaves" reading=0.93
substance="RINSAKDDAAGLQIA-OH [flg15, plant defense elicitor peptide, 15 amino acids of the N-terminal conserved domain of bacterial flagellin; monomer]" target_or_test_system="tobacco leaves" reading=0
substance="KKLfKKILKYL-FKLFKKILKVL-NH2 [BP143-BP13, peptide conjugate, BP143 at N-terminus, BP13 at C-terminus]" target_or_test_system="tobacco leaves" reading=1.14
substance="KKLFKKILKKL-FKLFKKILKVL-NH2 [BP16-BP13, peptide conjugate, BP16 at N-terminus, BP13 at C-terminus]" target_or_test_system="tobacco leaves" reading=1.52
substance="FKLFKKILKVL-KKLFKKILKYL-NH2 [BP13-BP100, peptide conjugate, BP13 at N-terminus, BP100 at C-terminus]" target_or_test_system="tobacco leaves" reading=1.30
substance="RINSAKDDAAGLQIA-KKLFKKILKYL-NH2 [flg15-BP100, peptide conjugate, flg15 at N-terminus, BP100 at C-terminus]" target_or_test_system="tobacco leaves" reading=1.02
substance="FKLFKKILKVL-KKLfKKILKYL-NH2 [BP13-BP143, peptide conjugate, BP13 at N-terminus, BP143 at C-terminus]" target_or_test_system="tobacco leaves" reading=1.07
